# speed of sound per record follows
conditions: 298.15 K; 101.33 kPa; Liquid; Pulse-echo method

[
  {
    "Compound": "CCCCCCCC[n+]1ccn(C)c1.F[P-](F)(F)(F)(F)F [1-octyl-3-methylimidazolium hexafluorophosphate]",
    "speed of sound / m/s": 1404.7
  },
  {
    "Compound": "CCCCCCCC[n+]1ccn(C)c1.[Cl-] [1-methyl-3-octylimidazolium chloride]",
    "speed of sound / m/s": 1687.2
  },
  {
    "Compound": "CCCC[n+]1ccc(C)cc1.F[B-](F)(F)F [1-butyl-4-methylpyridinium tetrafluoroborate]",
    "speed of sound / m/s": 1602.3
  },
  {
    "Compound": "COS(=O)(=O)[O-].Cn1cc[n+](C)c1 [1,3-dimethylimidazolium methylsulfate]",
    "speed of sound / m/s": 1811.5
  },
  {
    "Compound": "CCn1cc[n+](C)c1.COS(=O)(=O)[O-] [1-ethyl-3-methylimidazolium methylsulfate]",
    "speed of sound / m/s": 1762.1
  },
  {
    "Compound": "CC(C)C[P+](C)(CC(C)C)CC(C)C.Cc1ccc(S(=O)(=O)[O-])cc1 [triisobutylmethylphosphonium p-toluenesulfonate]",
    "speed of sound / m/s": 1628.8
  },
  {
    "Compound": "CCCCCCn1cc[n+](C)c1.F[P-](F)(F)(F)(F)F [1-hexyl-3-methylimidazolium hexafluorophosphate]",
    "speed of sound / m/s": 1424.4
  },
  {
    "Compound": "CCCCn1cc[n+](C)c1.F[P-](F)(F)(F)(F)F [1-butyl-3-methylimidazolium hexafluorophosphate]",
    "speed of sound / m/s": 1443.6
  },
  {
    "Compound": "CCCCn1cc[n+](C)c1.O=S(=O)([O-])O [1-butyl-3-methylimidazolium hydrogen sulfate]",
    "speed of sound / m/s": 1689.8
  }
]

Where do these numbers come from? They come from the NIST ThermoML archive (doi:10.1021/je500093z).
